# System: MOLT-4
# experiment: NCI tumour cell line growth inhibition, 48 h
The source made the active and inactive calls. No stated cut-off is given here; in the data, active = GI50 up to about 1.1 µM and inactive = higher.
Select the matching outcome among 1.0 for active, 0.0 for inactive

Illustrative cases are given below, each with its answer.
[[record]]
compound = "CC(=O)/C(=N\\O)C(=O)Nc1ccc(Cl)cc1Cl"
class_name = 0.0

[[record]]
compound = "Cc1ccc(C(=O)N/N=C(\\N=N\\c2ccccc2Cl)c2ccc(N(C)C)cc2)cc1"
class_name = 0.0

[[record]]
compound = "Cc1c(CN2CCOCC2)c(CN2CCOCC2)c(C)n1-c1ccc(Cl)cn1"
class_name = 0.0

[[record]]
compound = "COc1cc(C2c3cc4c(cc3[C@@H](Nc3cccc(CO)c3)C3COC(=O)[C@H]23)OCO4)cc(OC)c1O (stereo partly specified)"
class_name = 1.0

[[record]]
compound = "COc1cc([C@@H]2c3cc4c(cc3[C@@H](NC(=O)c3ccc(OC(C)=O)cc3)C3COC(=O)[C@@H]32)OCO4)cc(OC)c1O (stereo partly specified)"
class_name = 1.0


Please let me know the test result on file for CCOC(=O)Cc1cc(OC)c(OC)cc1/C(Cl)=C(\CO)c1ccc(OC)c(OC)c1 .
0.0

Please let me know the test result on file for Oc1cc(Br)cc2cccnc12 .
0.0

Please let me know the test result on file for COc1cc(S(=O)(=O)Nc2nc(-c3ccc(N4C(=O)/C(=C/c5ccccc5[N+](=O)[O-])N=C4c4ccccc4)cc3)cs2)ccc1Cl .
0.0

Please let me know the test result on file for CCOC(=O)CCC1(C(=O)OCC)CCCCC1=O (stereo unspecified) .
0.0

Please let me know the test result on file for N#Cc1ccc(Oc2cccc(Oc3ccccc3)c2)cc1C#N .
0.0

Please let me know the test result on file for ON(Cc1ccccc1)C(=S)c1ccccc1 .
1.0

Please let me know the test result on file for c1ccc2c(CNCCCCCCCCCCCCNCc3cccc4ccccc34)cccc2c1 .
0.0

Please let me know the test result on file for CCOP(=O)(OCC)[C@H](O)c1ccsc1 .
0.0

Please let me know the test result on file for C#CCC(O)c1ccc(OC)c(OCc2ccccc2)c1 (stereo unspecified) .
0.0
